# ASSAY COMMENT: Drug level in po dosed CD1 mouse administered as 5% phosal solution after 4 hrs
# Type: ADME, organism-based
# RUN PARAMETERS: in vivo, read-out: Drug uptake
METRIC: concentration at 4 h (µM)
Express the result in µM but write the number alone.

What the record says about "Clc1ccc(Nc2nnc(-c3cccc4cnccc34)c3ccccc23)cc1" : concentration at 4 h is 18.8

====

# ASSAY COMMENT: Cmax in CD1 mouse at 30 mg/kg administered as 5% phosal solution after 24 hrs
# Type: ADME, organism-based
# Set-up: dose 30 mg/kg
# RUN PARAMETERS: in vivo
METRIC: Cmax (µM)
Express the result in µM but write the number alone.

What the record says about "Clc1ccc(Nc2nnc(-c3cccc4cnccc34)c3ccccc23)cc1" : Cmax is 25.9

====

# ASSAY COMMENT: AUC (0 to 24 hrs) in CD1 mouse at 30 mg/kg administered as 5% phosal solution
# Format: ADME, organism-based
# Parameters: time < 24 hr, dose 30 mg/kg
# RUN PARAMETERS: plasma
METRIC: AUC(0-t) at 24 h (µM·h)
Express the result in µM·h but write the number alone.

What the record says about "Clc1ccc(Nc2nnc(-c3cccc4cnccc34)c3ccccc23)cc1" : AUC(0-t) at 24 h is 891

====

A collection of molecules and their measured pEC50
# Test system: HUVEC
# ASSAY COMMENT: Inhibition of VEGF-stimulated HUVEC cell proliferation treated before 2 hrs of VEGF challenge assessed after 3 days by [3H]thymidine incorporation assay
# Type: functional
# RUN PARAMETERS: Homo sapiens, read-out: ED50 (the source's name)
Keep it numeric: pEC50 is minus log10 of the concentration in mol/L.

What the record says about "Clc1ccc(Nc2nnc(-c3cccc4cnccc34)c3ccccc23)cc1" : pEC50 is 6.68

What the record says about COc1cc2c(Oc3ccc4[nH]c(C)cc4c3F)ncnc2cc1OCCCN1CCCC1 [CEDIRANIB] : pEC50 is 7.92

What the record says about "CC(C)(C)c1ccc(Nc2nnc(-c3ccc(C(N)=O)cc3)c3ccccc23)cc1" : pEC50 is 6.60

What the record says about COc1cc2/c(=N/c3ccc(Br)cc3F)nc[nH]c2cc1OCC1CCN(C)CC1 [VANDETANIB] : pEC50 is 6.55
